meta.source: patent US20230365589A1

- STUDY_SYSTEM: DYRK3 (Homo sapiens, UniProt O43781)
- Construct: purchased Carna Biosciences, Inc. 04-133
- Sequence (O43781 1-568 isoform O43781-2): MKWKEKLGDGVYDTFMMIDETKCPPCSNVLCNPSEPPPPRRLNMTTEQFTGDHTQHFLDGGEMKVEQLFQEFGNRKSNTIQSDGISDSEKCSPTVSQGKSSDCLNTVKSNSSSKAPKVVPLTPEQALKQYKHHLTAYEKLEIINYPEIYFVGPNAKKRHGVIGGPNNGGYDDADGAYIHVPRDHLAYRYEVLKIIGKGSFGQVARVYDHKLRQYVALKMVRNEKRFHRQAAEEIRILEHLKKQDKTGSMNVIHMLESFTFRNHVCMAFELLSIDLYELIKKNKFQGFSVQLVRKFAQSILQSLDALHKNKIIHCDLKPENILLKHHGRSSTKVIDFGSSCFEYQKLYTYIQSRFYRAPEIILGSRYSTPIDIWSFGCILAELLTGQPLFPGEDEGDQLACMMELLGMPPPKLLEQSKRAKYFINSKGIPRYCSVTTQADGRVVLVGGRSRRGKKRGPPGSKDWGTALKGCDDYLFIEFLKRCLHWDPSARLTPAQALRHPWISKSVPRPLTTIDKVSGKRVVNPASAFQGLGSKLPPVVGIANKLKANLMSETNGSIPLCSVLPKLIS
- TEST_PROTOCOL: Inhibition test on activity of DYRK family, mobility shift assay (MSA): DYRK3
- Assay type: biochemical
- PROTOCOL_CONDITIONS: MSA, FITC-labeled DYRKtide peptide, ATP 20 μM; read-out: Inhibitory activity DYRK 3 (IC50 class)
pIC50: −log10 of the molar value.

COMPOUND | STUDY_SYSTEM | pIC50
O=C1N[C@H]2CO[C@@H](CF)C[C@H]2N1c1nc2c3c(ccc2s1)OCC3 | DYRK3 (Homo sapiens, UniProt O43781) | 7.00 to 8.00
CN1C[C@@H]2NC(=O)N(c3nc4c5c(ccc4s3)OCC5)[C@@H]2[C@@H](F)C1 | DYRK3 (Homo sapiens, UniProt O43781) | 6.00 to 7.00
O=C1NC2CCNCC2N1c1nc2c3c(ccc2s1)OCCO3 (centres unmarked) | DYRK3 (Homo sapiens, UniProt O43781) | ≤ 6.00
C#C[C@H]1C[C@@H]2[C@H](CO1)NC(=O)N2c1nc2c3c(ccc2s1)OCC3 | DYRK3 (Homo sapiens, UniProt O43781) | 6.00 to 7.00
C[C@H]1NC(=O)N(c2nc3c4c(ccc3s2)OCC4)[C@@H]1CN1CCOCC1 | DYRK3 (Homo sapiens, UniProt O43781) | ≤ 6.00
O=C1NC2CCN(C3CC3)CC2N1c1nc2c3c(ccc2s1)OCO3 (centres unmarked) | DYRK3 (Homo sapiens, UniProt O43781) | ≤ 6.00
C[C@@H]1NC(=O)N(c2nc3c4c(ccc3s2)OCC4)[C@@H]1CN1CCOCC1 | DYRK3 (Homo sapiens, UniProt O43781) | 6.00 to 7.00
CC(C)N1CC[C@H]2NC(=O)N(c3nc4c5c(ccc4s3)OCC5)[C@H]2C1 (relative stereo) | DYRK3 (Homo sapiens, UniProt O43781) | ≤ 6.00
